Can you tell me pIC50 for the items I'm about to list?
- subject_of_test: HCV NS3/4A protease genotype 1b (Hepatitis C virus genotype 1b, UniProt P26663)
- assay_info: HCV NS3/4A protease time-resolved fluorescence (TRF) assay, Ki against genotype 1b
- Type: biochemical
- stated_conditions: IC50 [gt-1b], NS3/4A protease TRF assay, genotype 1b enzyme 0.2 nM
Bear in mind: pIC50 is minus log10 of a mol/L concentration; give just that figure.

Indicate its recorded pIC50; the compound in question is COCCOc1ccc2nc(C)c3c(c2c1)CC[C@]1(C[C@H]2C(=O)N[C@]4(C(=O)NS(=O)(=O)C5(C)CC5)C[C@H]4/C=C\CCCCC[C@H](NC(=O)OC(C)(C)C)C(=O)N2C1)O3
10.70

Indicate its recorded pIC50; the compound in question is COc1cc(Cl)c2nc(C(F)(F)F)c3c(c2c1)CC[C@]1(C[C@H]2C(=O)N[C@]4(C(=O)NS(=O)(=O)C5(C)CC5)C[C@H]4/C=C\CCCCC[C@H](NC(=O)OC(C)(C)C(F)(F)F)C(=O)N2C1)O3
10.28

Indicate its recorded pIC50; the compound in question is Cc1nc2ccccc2c2c1O[C@]1(CC2)C[C@H]2C(=O)N[C@]3(C(=O)NS(=O)(=O)C4(C)CC4)C[C@H]3/C=C\CCCCC[C@H](Nc3nccs3)C(=O)N2C1
9.84

Indicate its recorded pIC50; the compound in question is Cc1ccc2nc(C(F)(F)F)c3c(c2c1)CC[C@]1(C[C@H]2C(=O)N[C@]4(C(=O)NS(=O)(=O)C5(C)CC5)C[C@H]4/C=C\CCCCC[C@H](NC(=O)OCC(C)(C)C)C(=O)N2C1)O3
10.59

Indicate its recorded pIC50; the compound in question is CC(C)(C)OC(=O)N[C@H]1CCCCC/C=C\[C@@H]2C[C@@]2(C(=O)NS(=O)(=O)C2(C)CC2)NC(=O)[C@@H]2C[C@]3(CCc4c(c(C(F)(F)F)nc5ccc(OCCO[Si](C)(C)C(C)(C)C)cc45)O3)CN2C1=O
10.36

Indicate its recorded pIC50; the compound in question is Cc1nc2ccc(OCCN3CCOCC3)cc2c2c1O[C@]1(CC2)C[C@H]2C(=O)N[C@]3(C(=O)NS(=O)(=O)C4(C)CC4)C[C@H]3/C=C\CCCCC[C@H](NC(=O)OCC(C)(C)C)C(=O)N2C1
10.62

Indicate its recorded pIC50; the compound in question is CC(C)(C)OC(=O)N[C@H]1CCCCC/C=C\[C@@H]2C[C@@]2(C(=O)NS(=O)(=O)C2(C)CC2)NC(=O)[C@@H]2C[C@]3(CCc4c(c(C(F)(F)F)nc5ccc(Cl)cc45)O3)CN2C1=O
10.70

Indicate its recorded pIC50; the compound in question is C=C[C@@H]1C[C@]1(NC(=O)[C@@H]1C[C@]23CCc4c(c(nc5ccc(OC)cc45)CCCCC[C@@H]4C[C@H]4OC(=O)N[C@@H](C(C)(C)C)C(=O)N1C2)O3)C(=O)NS(=O)(=O)C1(C)CC1
10.59

Indicate its recorded pIC50; the compound in question is COCCOc1ccc2nc(C)c3c(c2c1)CC[C@]1(C[C@H]2C(=O)N[C@]4(C(=O)NS(=O)(=O)C5(C)CC5)C[C@H]4/C=C\CCCCC[C@H](NC(=O)OCC(C)(C)C)C(=O)N2C1)O3
10.96

Indicate its recorded pIC50; the compound in question is CC1(S(=O)(=O)NC(=O)[C@@]23C[C@H]2/C=C\CCCCC[C@H](NC(=O)OC2CCCC2)C(=O)N2C[C@@]4(CCc5c(c(C(F)(F)F)nc6ccc(Cl)cc56)O4)C[C@H]2C(=O)N3)CC1
10.64

Indicate its recorded pIC50; the compound in question is Cc1nc2ccccc2c2c1O[C@]1(CC2)C[C@H]2C(=O)N[C@]3(C(=O)NS(=O)(=O)C4(C)CC4)C[C@H]3/C=C\CCCCC[C@H](Nc3cc(C(F)(F)F)ccn3)C(=O)N2C1
10.33

Indicate its recorded pIC50; the compound in question is COCC1(S(=O)(=O)NC(=O)[C@@]23C[C@H]2/C=C\CCCCC[C@H](NC(=O)OC(C)(C)C)C(=O)N2C[C@@]4(CCc5c(c(C(F)F)nc6ccc(OC)cc56)O4)C[C@H]2C(=O)N3)CC1
10.92

Indicate its recorded pIC50; the compound in question is CC(C)(C)OC(=O)N[C@H]1CCCCC/C=C\[C@@H]2C[C@@]2(C(=O)NS(=O)(=O)C2(C)CC2)NC(=O)[C@@H]2C[C@]3(CCc4c(c(C(F)(F)F)nc5ccc(OCF)cc45)O3)CN2C1=O
10.82

Indicate its recorded pIC50; the compound in question is COc1ccc2nc(C(F)(F)F)c3c(c2c1)[C@@H](F)C[C@]1(C[C@H]2C(=O)N[C@]4(C(=O)NS(=O)(=O)C5(C)CC5)C[C@H]4/C=C\CCCCC[C@H](NC(=O)OC(C)(C)C)C(=O)N2C1)O3
9.22

Indicate its recorded pIC50; the compound in question is CCc1nc2ccc(OC)cc2c2c1O[C@]1(CC2)C[C@H]2C(=O)N[C@]3(C(=O)NS(=O)(=O)C4(C)CC4)C[C@H]3/C=C\CCCCC[C@H](NC(=O)c3ccn(C(F)F)n3)C(=O)N2C1
10.51

Indicate its recorded pIC50; the compound in question is CCc1nc2ccc(OC)cc2c2c1O[C@]1(CC2)C[C@H]2C(=O)N[C@]3(C(=O)NS(=O)(=O)C4(C)CC4)C[C@H]3/C=C\CCCCC[C@H](NC(=O)O[C@H](C)C3CC3)C(=O)N2C1
11.40

Indicate its recorded pIC50; the compound in question is CCc1nc2ccc(OC)cc2c2c1O[C@]1(CC2)C[C@H]2C(=O)N[C@]3(C(=O)NS(=O)(=O)C4(C)CC4)C[C@H]3/C=C\CCCCC[C@H](NC(=O)c3cc(C)cs3)C(=O)N2C1
11.10

Indicate its recorded pIC50; the compound in question is CC[C@H](C)OC(=O)N[C@H]1CCCCC/C=C\[C@@H]2C[C@@]2(C(=O)NS(=O)(=O)C2(C)CC2)NC(=O)[C@@H]2C[C@]3(CCc4c(c(C(F)F)nc5ccc(OC)nc45)O3)CN2C1=O
11.40

Reference for the values: patent US8987195B2
